Anti-CD28 Fab (SEQ ID NOs: 696, 697) signal for assorted binders
Sequence (VH, as listed by the source, chain 1 of 2): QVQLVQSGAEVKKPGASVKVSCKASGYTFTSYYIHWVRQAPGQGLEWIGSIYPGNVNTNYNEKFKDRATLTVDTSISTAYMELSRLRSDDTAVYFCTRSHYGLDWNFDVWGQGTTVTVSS
Sequence (VL, as listed by the source, chain 2 of 2): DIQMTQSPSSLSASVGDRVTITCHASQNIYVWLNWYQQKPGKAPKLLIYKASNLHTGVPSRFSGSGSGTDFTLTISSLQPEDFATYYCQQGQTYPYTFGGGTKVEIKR
Biological target: Anti-CD28 Fab (SEQ ID NOs: 696, 697)
Test: phage binding ELISA; biotinylated anti-CD28 Fab on neutravidin plate, clonal phage supernatant, anti-M13 HRP;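 also: crude clonal phage supernatants screened after wells were preincubated either with CD28 antigen in blocking buffer or with blocking buffer only, phage added without washing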
Where no end group is shown, it is not given here.
measured-metric: Anti-CD28 Fab (SEQ ID NOs: 696, 697) signal

binder: YCEGHSSLYLEKCL (cysteine pairing not given here; also: displayed on phage by fusion to pIII, linker and pIII sequence not given here, Clonal phage of the Peptide-87 library; not shown: fused to the pIII filament of the bacteriophage) [Phage-1181]
obs-value: 1.11

binder: YCDGHEAEYMWKCL (cysteine pairing not given here; also: displayed on phage by fusion to pIII, linker and pIII sequence not given here, Clonal phage of the Peptide-87 library; not shown: fused to the pIII filament of the bacteriophage) [Phage-1176]
obs-value: 1.13

binder: YCQGHLPQYIEKCL (cysteine pairing not given here; also: displayed on phage by fusion to pIII, linker and pIII sequence not given here, Clonal phage of the Peptide-87 library; not shown: fused to the pIII filament of the bacteriophage) [Phage-1170]
obs-value: 1.14

binder: YCEGHAAAYMGKCL (cysteine pairing not given here; also: displayed on phage by fusion to pIII, linker and pIII sequence not given here, Clonal phage of the Peptide-87 library; not shown: fused to the pIII filament of the bacteriophage) [Phage-1171]
obs-value: 1.14

binder: YCVGHSEQYMAKCL (cysteine pairing not given here; also: displayed on phage by fusion to pIII, linker and pIII sequence not given here, Clonal phage of the Peptide-87 library; not shown: fused to the pIII filament of the bacteriophage) [Phage-1175]
obs-value: 1.13

binder: YCEGHLYEYMWKCL (cysteine pairing not given here; also: displayed on phage by fusion to pIII, linker and pIII sequence not given here, Clonal phage of the Peptide-87 library; not shown: fused to the pIII filament of the bacteriophage) [Phage-1174]
obs-value: 1.13

binder: YCDGHLQMYMMKCL (cysteine pairing not given here; also: displayed on phage by fusion to pIII, linker and pIII sequence not given here, Clonal phage of the Peptide-87 library; not shown: fused to the pIII filament of the bacteriophage) [Phage-1173]
obs-value: 1.14
